Values were extracted from paper PMC9482650.

target: LNX1_1, Q8TBB1; test: holdup assay; parameters: key: below the threshold = too weak to quantify, mostly under pKd 3.1 to 4; conditions: plain residues with an end cap or a label only (N-terminal biotin on a linker: ado-ado)
Sequence (Q8TBB1 261-371): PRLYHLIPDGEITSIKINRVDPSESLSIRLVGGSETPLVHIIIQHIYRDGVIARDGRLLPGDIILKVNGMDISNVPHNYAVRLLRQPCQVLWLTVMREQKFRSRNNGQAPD

BINDER	pKd
KKTPVSRSHL [SLC22A3, O75751]	below the threshold
SGDGKTSVWI [GJC1, P36383]	below the threshold
PALKNGQYWV [CSPG4, Q6UVK1]	below the threshold
GDSSRKEYFI [GYPC, P04921]	below the threshold
